Cited source for all entries: ChEMBL document CHEMBL4613292

# assay-details: Cytotoxicity against human HeLa cells assessed as reduction in cell viability
# Type: cell-based
value-kind: CC50 (µM)
Write it as a number; the unit µM goes unstated.

C[C@@H](NC(=O)c1nc(-c2cc(Cl)ccn2)nc(O)c1O)C1CCCCC1
3
O=C(NCCC1CCCCC1)c1nc(-c2ccccn2)nc(O)c1O
4.2
C[C@H](NC(=O)c1nc(-c2ccccn2)nc(O)c1O)C1CCCCC1
0.6

Read the next record carefully.
Q: Write down CC50 measured for item COc1ccnc(-c2nc(O)c(O)c(C(=O)N[C@H](C)C3CCCCC3)n2)c1
Result: 3

====

# assay-details: Half life in mouse hepatocytes at 3 uM by LC-MS/MS analysis
# Assay type: ADME, cell-based, Hepatocyte
Below is a list of entries, each paired with its recorded half-life at 3 µM value.
Write it as a number; the unit h goes unstated.

Recorded half-life at 3 µM, per entry:
C[C@@H](NC(=O)c1nc(-c2cc(C(F)(F)F)ccn2)nc(O)c1O)C1CCCCC1
2.4
C[C@@H](NC(=O)c1nc(-c2nccc3ccccc23)nc(O)c1O)C1CCCCC1
1.7
C[C@@H](NC(=O)c1nc(-c2cc(Cl)ccn2)nc(O)c1O)C1CCCCC1
1.7

Q: Write down half-life at 3 µM measured for item COc1ccnc(-c2nc(O)c(O)c(C(=O)N[C@H](C)C3CCCCC3)n2)c1
Result: 1.9

====

# assay-details: Selectivity index, ratio of CC50 for human HeLa cells assessed as reduction in cell viability to EC50 for wild-type HIV1 NL4-3 infected in human TZM-bl cells infected with supernatants from virus-infected human MT2 cells treated with compound for 48 to 72 hrs assessed as reduction in viral replication after 2 days by bright Glo-luciferase reporter gene assay based BiCycle assay
# Assay type: toxicity
# condition-description: read-out: Ratio CC50/EC50
Below is a list of entries, each paired with its recorded selectivity ratio value.
The answer should be written as a number, with no unit following it.

Recorded selectivity ratio, per entry:
C[C@@H](NC(=O)c1nc(-c2cc(C(F)(F)F)ccn2)nc(O)c1O)C1CCCCC1
15
O=C(NCCC1CCCCC1)c1nc(-c2ccccn2)nc(O)c1O
2

Q: Write down selectivity ratio measured for item COc1ccnc(-c2nc(O)c(O)c(C(=O)N[C@H](C)C3CCCCC3)n2)c1
Result: 75

Q: Write down selectivity ratio measured for item C[C@@H](NC(=O)c1nc(-c2nccc3ccccc23)nc(O)c1O)C1CCCCC1
Result: 21

Q: Write down selectivity ratio measured for item C[C@H](NC(=O)c1nc(-c2ccccn2)nc(O)c1O)C1CCCCC1
Result: 3

Q: Write down selectivity ratio measured for item C[C@@H](NC(=O)c1nc(-c2ccccn2)nc(O)c1O)C1CCCCC1
Result: 5

Q: Write down selectivity ratio measured for item O=C(NCC1CCCCC1)c1nc(-c2ccccn2)nc(O)c1O
Result: 3

Q: Write down selectivity ratio measured for item Cc1ccnc(-c2nc(O)c(O)c(C(=O)N[C@H](C)C3CCCCC3)n2)c1
Result: 13

Q: Write down selectivity ratio measured for item C[C@@H](NC(=O)c1nc(-c2cc(Cl)ccn2)nc(O)c1O)C1CCCCC1
Result: 30

====

# Tested on: Human immunodeficiency virus 1
# assay-details: Antiviral activity against INI-resistant HIV1 11845
# Format: functional, organism-based
# condition-description: Human immunodeficiency virus 1, 11845
Below is a list of entries, each paired with its recorded pEC50 value.
pEC50 here: minus log base 10 of the concentration, concentration in moles per litre.

Recorded pEC50, per entry:
COc1ccnc(-c2nc(O)c(O)c(C(=O)N[C@H](C)C3CCCCC3)n2)c1
7.05
C[C@@H](NC(=O)c1nc(-c2nccc3ccccc23)nc(O)c1O)C1CCCCC1
7.05

Q: Write down pEC50 measured for item C[C@@H](NC(=O)c1nc(-c2cc(Cl)ccn2)nc(O)c1O)C1CCCCC1
Result: 7.15
